B1: Ankyrin-3, residues 4094 to 4171; numbered along this chain, Q12955 (parent)
chain: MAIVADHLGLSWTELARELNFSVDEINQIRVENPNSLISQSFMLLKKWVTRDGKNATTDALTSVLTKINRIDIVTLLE

Variants of: B1
Assay: abundance fitness (aPCA) (normalised: wild type 0, dead -1); higher = more abundant; growth selection in yeast, the domain comes from the species named
Settings: Homo sapiens
Use criterion met when the recorded abundance fitness is no lower than -0.5; use criterion not met when it is lower.

INSERT INTO measurements (sequence_entry, assigned_class) VALUES
  ('MAIVADHLGLSWTELARELNFSVDEINQIRVEWPNSLISQSFMLLKKWVTRDGKNATTDALTSVLTKINRIDIVTLLE [N33W]', 'criterion met'),
  ('MAIVADHLGLSWTELARFLNFSVDEINQIRVENPNSLISQSFMLLKKWVTRDGKNATTDALTSVLTKINRIDIVTLLE [E18F]', 'criterion met'),
  ('MAIVADHLGLSWTELARELNFSVDEINQIRVENPNSLISQSFMLLKKWVTRDGKNATTDALTSVLTKINRFDIVTLLE [I71F]', 'criterion met'),
  ('MAIVADHLGLSWTELARELNFSVDEINQIRVENPNPLISQSFMLLKKWVTRDGKNATTDALTSVLTKINRIDIVTLLE [S36P]', 'criterion not met'),
  ('MAIVADHLGLSWTELARELNFSVDNINQIRVENPNSLISQSFMLLKKWVTRDGKNATTDALTSVLTKINRIDIVTLLE [E25N]', 'criterion not met'),
  ('MAIVADHLGLSWTELARELNFSVDEINQIRVENPNSLISQSFMLLTKWVTRDGKNATTDALTSVLTKINRIDIVTLLE [K46T]', 'criterion met'),
  ('MAIVADHLGLSWTELARELNFSVDEINQIRVENPNSLISQSFMLLKKWVTRDGKNATTDALTSVLTKCNRIDIVTLLE [I68C]', 'criterion met'),
  ('MAIVADHLGLSWTELARELNFSVDEINQIRVENPNSLISHSFMLLKKWVTRDGKNATTDALTSVLTKINRIDIVTLLE [Q40H]', 'criterion not met');

**Query** Hi team, for MAIVADHLGLSWTELARELNFSVDEINQIRVENPNSLISQSFMLLKKWVTRDGKNATTDALTSVLTKINRICIVTLLE [D72C] , is the recorded abundance fitness at or above -0.5?
**Result** criterion not met

**Query** Hi team, for MAIVADHLGLSWTELARELNFSVDEINQIRVYNPNSLISQSFMLLKKWVTRDGKNATTDALTSVLTKINRIDIVTLLE [E32Y] , is the recorded abundance fitness at or above -0.5?
**Result** criterion met

**Query** Hi team, for MAIVADHLGLSWTELARELNFSVDEINQIRVENPNSLISQSFMLLKKWVTRDGKNATTNALTSVLTKINRIDIVTLLE [D59N] , is the recorded abundance fitness at or above -0.5?
**Result** criterion met

**Query** Hi team, for MAIVADHLGLSWTELARELNFSVDEINQIRVENPNSLISQSFMLLKKWVTRDGKNATWDALTSVLTKINRIDIVTLLE [T58W] , is the recorded abundance fitness at or above -0.5?
**Result** criterion met

**Query** Hi team, for MAIVADHLGLSWTELARELNFSVDEINQIRVENPNSLLSQSFMLLKKWVTRDGKNATTDALTSVLTKINRIDIVTLLE [I38L] , is the recorded abundance fitness at or above -0.5?
**Result** criterion met

**Query** Hi team, for MAIVADHLGLSWTELAPELNFSVDEINQIRVENPNSLISQSFMLLKKWVTRDGKNATTDALTSVLTKINRIDIVTLLE [R17P] , is the recorded abundance fitness at or above -0.5?
**Result** criterion not met

**Query** Hi team, for MAIVADHLGLSWTELARELNFSVDEINQIRVENPNSLISQSFMLLKKWGTRDGKNATTDALTSVLTKINRIDIVTLLE [V49G] , is the recorded abundance fitness at or above -0.5?
**Result** criterion met

meta.source: the Human Domainome abundance scans (Beltran et al. 2025)
